# tested_target: p97-C209A (Homo sapiens, UniProt P55072, C209A)
# Sequence (P55072 whole entry C209A): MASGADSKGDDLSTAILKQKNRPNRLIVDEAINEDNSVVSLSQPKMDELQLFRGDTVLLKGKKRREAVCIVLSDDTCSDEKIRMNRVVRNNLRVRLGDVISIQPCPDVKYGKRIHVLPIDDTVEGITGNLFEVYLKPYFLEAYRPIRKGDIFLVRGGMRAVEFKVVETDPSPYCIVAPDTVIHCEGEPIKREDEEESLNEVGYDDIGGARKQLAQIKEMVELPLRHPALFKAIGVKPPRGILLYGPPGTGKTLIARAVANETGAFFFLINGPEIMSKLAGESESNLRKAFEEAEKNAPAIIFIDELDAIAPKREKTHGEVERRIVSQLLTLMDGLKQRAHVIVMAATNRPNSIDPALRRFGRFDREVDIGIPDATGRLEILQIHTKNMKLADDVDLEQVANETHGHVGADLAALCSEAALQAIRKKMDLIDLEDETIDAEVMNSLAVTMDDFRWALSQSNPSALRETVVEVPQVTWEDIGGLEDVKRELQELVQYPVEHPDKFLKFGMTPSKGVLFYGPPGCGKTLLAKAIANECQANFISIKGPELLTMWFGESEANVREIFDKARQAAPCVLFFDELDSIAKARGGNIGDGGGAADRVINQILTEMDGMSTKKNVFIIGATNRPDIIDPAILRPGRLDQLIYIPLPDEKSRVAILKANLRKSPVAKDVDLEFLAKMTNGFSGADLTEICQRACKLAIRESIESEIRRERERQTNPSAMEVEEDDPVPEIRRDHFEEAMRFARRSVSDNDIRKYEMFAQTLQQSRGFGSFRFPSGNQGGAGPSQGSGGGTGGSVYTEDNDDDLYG
# assay_details: biochemical
measured_quantity: IC50

# lookup: IC50 of C=C1OC(=O)C2(C1=O)[C@H](/C=C/C=C/CCC)C=C[C@@H](O)[C@@H]2O (mixture of isomers) [compound 2, oxaspirol B]
18 µM

---

# tested_target: N-ethylmaleimide sensitive factor (NSF) (Homo sapiens)
# Sequence (P46459 whole entry, species assumed): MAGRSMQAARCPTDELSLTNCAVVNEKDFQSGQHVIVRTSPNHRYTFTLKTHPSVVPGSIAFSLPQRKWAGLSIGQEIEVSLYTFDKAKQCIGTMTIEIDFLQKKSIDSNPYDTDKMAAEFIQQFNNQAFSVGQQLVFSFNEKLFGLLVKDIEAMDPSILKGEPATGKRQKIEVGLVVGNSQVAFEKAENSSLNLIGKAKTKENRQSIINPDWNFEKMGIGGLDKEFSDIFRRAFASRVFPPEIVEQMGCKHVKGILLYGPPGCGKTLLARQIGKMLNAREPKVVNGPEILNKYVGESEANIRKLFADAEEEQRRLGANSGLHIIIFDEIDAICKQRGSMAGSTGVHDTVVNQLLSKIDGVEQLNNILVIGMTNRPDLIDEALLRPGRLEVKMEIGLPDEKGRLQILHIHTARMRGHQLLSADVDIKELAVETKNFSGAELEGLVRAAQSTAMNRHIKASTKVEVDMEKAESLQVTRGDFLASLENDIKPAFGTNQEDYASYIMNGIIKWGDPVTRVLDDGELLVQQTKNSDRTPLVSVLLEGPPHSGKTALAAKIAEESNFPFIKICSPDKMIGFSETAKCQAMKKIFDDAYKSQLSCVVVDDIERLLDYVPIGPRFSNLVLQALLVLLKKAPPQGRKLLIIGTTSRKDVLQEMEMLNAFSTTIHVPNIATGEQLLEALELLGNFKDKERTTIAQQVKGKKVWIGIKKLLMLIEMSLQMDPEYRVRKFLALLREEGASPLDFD
measured_quantity: IC50

Query for N-ethylmaleimide sensitive factor (NSF) (Homo sapiens): what IC50 does the record show for C=C1OC(=O)C2(C1=O)[C@H](/C=C/C=C/CCC)C=C[C@@H](O)[C@@H]2O (mixture of isomers) ?
> 200 µM
